# credit: paper PMC8161390

What LC50 at 12 days was measured for each of the following?
assay: Inland Silverside embryo-to-larva 12-day exposure bioassay (mortality, dose-response); conditions: Menidia beryllina (Inland Silverside), in vivo, 15 PSU LC50, 15 PSU salinity, <24 hpf embryos to 96 hph larvae, nominal concentrations
Report the value in µg/mL with no unit label.

Item CCOP(=S)(OCC)Oc1nc(Cl)c(Cl)cc1Cl has what recorded LC50 at 12 days?
0.0024

Item: Cc1c(COC(=O)[C@@H]2[C@H](/C=C(\Cl)C(F)(F)F)C2(C)C)cccc1-c1ccccc1 (racemic)
0.00012

Consider next the molecule C[n+]1ccc(-c2cc[n+](C)cc2)cc1 [Paraquat, paraquat dichloride hydrate] in the same way.
18.1

Consider next the molecule CCCCC(C#N)(Cn1cncn1)c1ccc(Cl)cc1 (centres unmarked) in the same way.
1.55

Next molecule: CCCC(Cn1cncn1)c1ccc(Cl)cc1Cl (centres unmarked)
0.0202
